Test: Cycloheximide Counterscreen for Small Molecule Inhibitors of Shiga Toxin
Settings: cell reporter, cycloheximide protein synthesis inhibition counterscreen
Hit rate of the full screen: of about 300,000 compounds, about 37,000 (12%) were called active. No stated cut-off is given here; in the data, active means max response mostly above about 13% (no sharp cut-off); inactive means mostly below about 14%. The list comes from a sample in which actives are over-represented; it also holds close analogues and randomly drawn compounds.
Outcome codes: active, inactive

molecule=Cn1c(=O)[nH]c(=O)c2c1[nH]c(=S)n2Cc1ccccc1 classassignment=inactive
molecule=O=C(CSc1cccc[n+]1[O-])NCCCc1ccccc1 classassignment=inactive
molecule="CC(CCc1ccc(O)cc1)NCc1ccc(Cl)cc1Cl (stereo not given)" classassignment=inactive
molecule=CC(C)=NN1C(=O)c2ccccc2NC1(C)C classassignment=active
molecule=COCCNc1ncnc2c1nc1n2CCCC1 classassignment=inactive
molecule=COc1ccc(CC(=O)NCC(=O)N/N=C/c2cc(Br)ccc2OC)cc1 classassignment=inactive
molecule="Nc1ncc(CN2CCCC(C(=O)Nc3ccc(-c4ccco4)cc3)C2)cn1 (stereo not given)" classassignment=inactive
molecule=Cc1cc(C)cc(Oc2c(C(F)(F)F)oc3cc(OCC(=O)O)ccc3c2=O)c1 classassignment=inactive
molecule=Cc1c(C=O)c2ccccc2n1CCOc1ccccc1 classassignment=inactive
molecule="CSc1ncccc1C(=O)N1CCCC(CCC(=O)NCc2ccccc2F)C1 (stereo not given)" classassignment=inactive

====

Assay: Cycloheximide Counterscreen for Small Molecule Inhibitors of Shiga Toxin; further: read at 38.3 µM for the half of the compounds with a filed dose; 0% is about no effect
Conditions: cell reporter, cycloheximide protein synthesis inhibition counterscreen; hits give high values
Screen size: about 300,000 compounds; about 37,000 (12%) were called active. The full list was thinned out, with actives kept by preference.
measuredEndpoint: max response

molecule="COc1ccc(C2CC(c3cccs3)=NN2C(=O)COC(=O)c2cc3ccccc3cc2O)cc1OC (centres undefined)" result="-1.77% (inactive)"
molecule="COc1ccc(CCNC(=O)C(Sc2ccccn2)c2ccccc2)cc1OC (centres undefined)" result="-1.92% (inactive)"
molecule="CCCCCn1c(=O)[nH]c2cc(C(=O)NCCCN3CCCCC3C)ccc2c1=O (centres undefined)" result="-2.4% (inactive)"
molecule=S=C(NCc1cccs1)Nc1ccc(Cl)cc1 result="13.8% (inactive)"
molecule=Cc1cc(/C=N/Nc2ccc([N+](=O)[O-])cn2)c(C)n1-c1cccc(C(=O)O)c1 result="27.7% (active)"
molecule=COc1ccc(NC(=O)CCNC(=O)Cn2cnc3sc4c(c3c2=O)CCCC4)cc1OC result="-3.75% (inactive)"
molecule="CC(C)C[C@H](NC(=O)C1CC(=O)N(c2ccc3c(c2)OCCO3)C1)C(=O)NC1CCCC1 (some centres undefined)" result="6.36% (inactive)"
molecule=O=C(O)c1ccc(N/N=C/c2cn(-c3ccccc3)nc2-c2cccs2)cc1 result="14.7% (inactive)"
molecule=NC(=O)C1CCN(Cc2nc3c(Br)cc(Br)cc3c(=O)[nH]2)CC1 result="4.18% (inactive)"

====

Experiment: Cycloheximide Counterscreen for Small Molecule Inhibitors of Shiga Toxin; further: read at 38.3 µM for the half of the compounds with a filed dose; 0% is about no effect
Settings: cell reporter, cycloheximide protein synthesis inhibition counterscreen
Among all 300,000 compounds or so, about 37,000 (12%) were called active. Rule as the data show it: active = max response mostly above about 13% (no sharp cut-off); inactive = mostly below about 14%. The list comes from a sample in which actives are over-represented; it also holds close analogues and randomly drawn compounds.
Classes used: active, inactive

molecule=COc1ccc(/C=C/C(=O)Nc2ccc(C34CC5CC(CC(O)(C5)C3)C4)cc2)cc1OC classassignment=active
molecule=COC(=O)c1ccc(/C=N\n2c(C)nnc2C)cc1 classassignment=inactive
molecule=O=C(Nc1cc(C(F)(F)F)ccc1Cl)c1cc2nc3c(c(C(F)(F)F)n2n1)CCCC3 classassignment=inactive
molecule="COC(=O)c1ccc(/C=N/N2C(C)CCCC2C)cc1 (stereo not given)" classassignment=active
molecule=O=C(/C=C\c1ccc2c(c1)OCO2)NC1(C(=O)Nc2ccc3c(c2)OCCO3)CCCCC1 classassignment=inactive
molecule=COc1cccc(/C=C/C(=O)Nc2ccc3c(c2)OCCO3)c1 classassignment=active
molecule=COc1cc(/C=N/NC(=S)Nc2cccnc2)cc(OC)c1O classassignment=inactive
molecule=COc1ccc(/C=C/C(=O)Nc2cccnc2)cc1OC classassignment=active
molecule=O=C(Cn1c(-c2cscn2)nc2ccccc21)Nc1ccc(Cl)cc1 classassignment=inactive
molecule=O=C(Cn1c(=O)sc2ccccc21)Nc1nc2c(s1)CCCC2 classassignment=inactive

====

Assay: Cycloheximide Counterscreen for Small Molecule Inhibitors of Shiga Toxin; further: read at 38.3 µM for the half of the compounds with a filed dose; 0% is about no effect
Conditions: cell reporter, cycloheximide protein synthesis inhibition counterscreen; hits give high values
Among all 300,000 compounds or so, about 37,000 (12%) were called active. This excerpt belongs to a sample that is enriched for actives.
measuredEndpoint: max response (%)

compound=O=C(N/N=C/c1ccc(Cl)c(Cl)c1)c1ccc2nc[nH]c2c1 measuredendpoint="max response" quantitativereadout=16.3
compound=COc1ccc(/C(C)=N/NC(=O)c2ccc3nc[nH]c3c2)cc1 measuredendpoint="max response" quantitativereadout=-2.63
compound="COCCN1C(=O)C(=O)/C(=C(/O)c2ccc(S(=O)(=O)N3CCOCC3)cc2)C1c1ccc(OC)c(OC)c1 (configuration not stated)" measuredendpoint="max response" quantitativereadout=-0.449
compound="O=C(c1ccc(C(F)(F)F)cc1)C1CCCN(C(=O)c2csnn2)C1 (configuration not stated)" measuredendpoint="max response" quantitativereadout=1.58
compound=COc1cc(C(=O)NCc2ccncc2)cc(Br)c1OCc1ccccc1 measuredendpoint="max response" quantitativereadout=-7.17
compound=CSc1ccc(/C=N\NC(=O)CC(=O)NC(C)C)cc1 measuredendpoint="max response" quantitativereadout=1.43
compound=Cc1ccc(NS(=O)(=O)c2ccc3c(c2)oc(=O)n3C)c(C)c1 measuredendpoint="max response" quantitativereadout=0.896

====

Recorded measurements of max response, one per entry
Test: Cycloheximide Counterscreen for Small Molecule Inhibitors of Shiga Toxin; further: read at 38.3 µM for the half of the compounds with a filed dose; 0% is about no effect
Settings: cell reporter, cycloheximide protein synthesis inhibition counterscreen; hits give high values
About 37,000 (12%) of roughly 300,000 compounds were called active. Only a selection was taken, and actives are over-represented in it overall.
measuredEndpoint: max response

compound="CC(=O)NS(=O)(=O)c1ccc(NC(=O)C2C3C=CC(C3)C2C(=O)O)cc1 (configuration not stated)" measuredendpoint="max response" result="-2.43% (inactive)"
compound=Cn1cc(C(=O)NCc2ccccc2F)cn1 measuredendpoint="max response" result="-3.82% (inactive)"
compound=O=C(CCCn1c(SCC(=O)c2ccc(F)cc2)nc2ccccc2c1=O)NCc1ccco1 measuredendpoint="max response" result="-0.158% (inactive)"
compound=CCn1ccnc1CN(C)C(=O)c1ccc2nc(Cc3ccc(OC)cc3)oc2c1 measuredendpoint="max response" result="-0.601% (inactive)"
compound=N#Cc1c(-c2ccccc2)cc(-c2ccccc2)nc1SCC(=O)O measuredendpoint="max response" result="-2.46% (inactive)"
compound=O=C(NCc1ccco1)c1ccc(Cn2c(=O)c3sccc3n(Cc3ccc(F)cc3)c2=O)cc1 measuredendpoint="max response" result="0.924% (inactive)"
compound="CCn1nc(C)c(CNC(=O)C2CCC(=O)N(Cc3cccc(F)c3)C2)c1C (configuration not stated)" measuredendpoint="max response" result="-0.425% (inactive)"
compound=O=C(NCCc1c[nH]c2ccccc12)C1CCN(Cc2ccc(Br)cc2)CC1 measuredendpoint="max response" result="-1.22% (inactive)"
compound=O=C(Cc1c[nH]c2ccccc12)N/N=C/c1cccc(F)c1 measuredendpoint="max response" result="11.5% (inactive)"
compound=CC1(C)C=C2[C@H]3CC[C@@H]4[C@@]5(C)CCC(=O)C(C)(C)[C@@H]5CC[C@@]4(C)[C@]3(C)CC[C@@]2(C(=O)O)CC1 measuredendpoint="max response" result="4.36% (inactive)"
compound="CCOC(=O)C(C)n1cnc2sc(C)c(C)c2c1=O (configuration not stated)" measuredendpoint="max response" result="-0.534% (inactive)"
compound=COC(=O)CSc1nc2ccccc2c(=O)n1Cc1ccccc1 measuredendpoint="max response" result="12.7% (inactive)"
compound="Cc1ccc(C2NC(C(=O)O)CS2)cc1 (configuration not stated)" measuredendpoint="max response" result="1.34% (inactive)"
compound=COc1ccc(Cc2nc3ccc(C(=O)NCC4CCOCC4)cc3o2)cc1OC measuredendpoint="max response" result="23.6% (active)"
compound="CC(C)COC(=O)c1ccc(NC(=O)C2C3C=CC(C3)C2C(=O)O)cc1 (configuration not stated)" measuredendpoint="max response" result="29% (active)"
compound=CCOc1cccc(/C=N/NC(=S)NCCN2CCOCC2)c1O measuredendpoint="max response" result="9.08% (inactive)"
compound="CCC1C(=O)NCCN1C(=O)c1ccc2nc(Cc3ccc(OC)cc3)oc2c1 (configuration not stated)" measuredendpoint="max response" result="16.3% (inactive)"
compound=COCCNC(=O)c1ccc2nc(Cc3ccc(OC)c(OC)c3)oc2c1 measuredendpoint="max response" result="32% (active)"
compound=CCCCNS(=O)(=O)c1ccc2nc(SCC(=O)Nc3cc(C)cc(C)c3)[nH]c2c1 measuredendpoint="max response" result="-6.32% (inactive)"
compound=CSCCNC(=O)c1ccc2nc(Cc3ccccc3F)oc2c1 measuredendpoint="max response" result="54.4% (active)"
compound=COc1ccc(OCc2n[nH]c(=S)n2N)cc1 measuredendpoint="max response" result="5.41% (inactive)"
compound="CCN(C(=O)COc1cccnc1[N+](=O)[O-])C1CCS(=O)(=O)C1 (configuration not stated)" measuredendpoint="max response" result="-3% (inactive)"
compound=CCOC(=O)c1cc2sccc2n1Cc1ccc(C#N)cc1 measuredendpoint="max response" result="-2.12% (inactive)"
compound=Cc1ccc2[nH]c(=O)c(CC(=O)O)c(-c3ccccc3)c2c1 measuredendpoint="max response" result="-1.3% (inactive)"
compound=O=C(NCc1ccco1)c1cc2sccc2n1Cc1ccc(F)cc1 measuredendpoint="max response" result="45.3% (active)"
compound=Cc1c(C(N)=O)sc2ncn(CCOc3ccccc3)c(=O)c12 measuredendpoint="max response" result="17.6% (active)"
compound=O=C(c1cc2sccc2n1Cc1ccc(F)cc1)N1CCc2ccccc21 measuredendpoint="max response" result="16.9% (active)"
compound="COC(=O)c1cc(NC(=O)C2C3C=CC(C3)C2C(=O)O)cc(C(=O)OC)c1 (configuration not stated)" measuredendpoint="max response" result="-3.42% (inactive)"
compound=COc1ccc(-c2nc3ccccc3c(=O)n2CCc2ccc(O)cc2)cc1 measuredendpoint="max response" result="17.7% (inactive)"
compound=COc1cccc(NC(=O)Cn2cnc3sc(C)c(S(=O)(=O)N4CCN(C)CC4)c3c2=O)c1 measuredendpoint="max response" result="-1.26% (inactive)"
compound=O=C(O)CN1c2cccc3cccc(c23)S1(=O)=O measuredendpoint="max response" result="8.16% (inactive)"
compound=CCOc1cccc(/C=N/N2C(=O)CSC2=S)c1O measuredendpoint="max response" result="13.3% (active)"

Every entry's value here was drawn from PubChem BioAssay AID2314.
